testedTarget: NIK (Homo sapiens, UniProt Q99558)
Construct: Both assays utilize a truncated form of NIK containing only the catalytic domain; made in house; host or cells: baculovirus expression system (insect cells implied)
Sequence (Q99558 400-655 limits assumed): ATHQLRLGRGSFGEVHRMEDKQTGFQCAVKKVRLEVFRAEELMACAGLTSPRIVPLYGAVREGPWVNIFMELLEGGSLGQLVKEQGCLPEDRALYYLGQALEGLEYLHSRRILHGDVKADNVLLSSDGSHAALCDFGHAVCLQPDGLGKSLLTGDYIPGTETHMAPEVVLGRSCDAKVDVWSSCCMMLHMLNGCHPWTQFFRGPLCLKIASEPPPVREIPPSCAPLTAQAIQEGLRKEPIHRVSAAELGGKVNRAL
assayInfo: homogenous time resolved fluorescence (HTRF) assay for NIK Ki measurement
Format: biochemical
measurementSetup: truncated NIK (catalytic domain only), autophosphorylation; 10 nM enzyme; 20, 100, 200 or 500 μM ATP; room temperature, 2 hours; read-out: Ki activity in the homogenous time resolved fluorescence (HTRF) assay for NIK
pKi: −log10 of the molar value.
endpointName: pKi

compound="CC(=O)n1cc(-c2nc(N)ncc2Cl)c2cc(C#CC3(O)CCCC3)ccc21 [Example 120]" observed="> 6.00"
compound="Cc1cc([C@@](C)(O)C#Cc2ccc3c(c2)N(c2ncns2)CC3(C)C)no1 [Example 15]" observed="> 6.00"
compound="Nc1ncc(F)c(-c2cn(CC3CCOC3)c3ccc(C#CC4(O)CCCC4)cc23)n1 (stereo not drawn) [Example 135]" observed="> 6.00"
compound="C[C@@](O)(C#Cc1ccc2c(c1)C(c1nc(N)ncc1Cl)=CC21CCOCC1)c1nccs1 [Example 221]" observed="> 6.00"
compound="CC(O)(C#Cc1ccc2c(c1)N(c1ccnc(N)n1)CC2)c1ccccc1 (stereo not drawn) [Example 267]" observed="> 6.00"
compound="COc1ccc(Nc2cc(-n3ccc4ccc(C#CC5(O)CCCC5)cc43)ncn2)cc1 [Example 260]" observed="4.52 to 6.00"
compound="Cc1ccc(C(C)(O)C#Cc2ccc3c(c2)N(c2ccnc(N)n2)CC3)o1 (stereo not drawn) [Example 275]" observed="> 6.00"
compound="CC(O)(C#Cc1ccc2c(c1)N(c1ccnc(N)n1)CC2)c1ccc(Cl)s1 (stereo not drawn) [Example 281]" observed="> 6.00"
compound="CC(O)(C#Cc1ccc2c(c1)N(c1ccncc1Cl)CC2(C)C)c1nccs1 (stereo not drawn) [Example 313]" observed="4.52 to 6.00"
compound="Nc1ncc(Cl)c(N2CCc3ccc(C#CC4(O)CCCC4)cc32)n1 [Example 16]" observed="> 6.00"
compound="CC1(CO)CN(c2nc(N)nc3[nH]cnc23)c2cc(C#CC3(O)CCCC3)ccc21 (stereo not drawn) [Example 74]" observed="> 6.00"
compound="COCCOc1ccc(C#C[C@](C)(O)c2cc(C)on2)cc1Nc1nc(N)ncc1Cl (single isomer, unassigned) [Example 178]" observed="4.52 to 6.00"
compound="CN1CCC2(C1)CN(c1nc(N)ncc1Cl)c1cc(C#CC3(O)CCCC3)ccc12 (single isomer, unassigned) [Example 192]" observed="> 6.00"
compound="COc1ccc(C#CC(C)(O)c2nccs2)cc1Nc1nc(N)ncc1Cl (stereo not drawn) [Example 143]" observed="> 6.00"
compound="N#Cc1cnc(N)nc1-c1c[nH]c2ccc(C#CC3(O)CCCC3)cc12 [Example 108]" observed="> 6.00"

----------
# Ki per entry
testedTarget: NIK (Homo sapiens, UniProt Q99558)
Construct: Both assays utilize a truncated form of NIK containing only the catalytic domain; made in house; host or cells: baculovirus expression system (insect cells implied)
assayInfo: homogenous time resolved fluorescence (HTRF) assay for NIK Ki measurement
Assay type: biochemical
measurementSetup: truncated NIK (catalytic domain only), autophosphorylation; 10 nM enzyme; 20, 100, 200 or 500 μM ATP; room temperature, 2 hours; read-out: Ki activity in the homogenous time resolved fluorescence (HTRF) assay for NIK
endpointName: Ki

compound=COc1cnc(N)nc1-c1c[nH]c2ccc(C#CC3(O)CCCC3)cc12 observed="< 1000 nM"
compound="CC(O)(C#Cc1ccc(O[C@H]2CCOC2)c(Nc2ccncc2)c1)c1nccs1 (stereo partly shown)" observed="1000 to 30000 nM"
compound="CC(C)(C)C(C)(O)C#Cc1ccc2c(c1)N(c1ccnc(N)n1)CC2 (stereo not shown)" observed="1000 to 30000 nM"
compound="Cc1cc(C(C)(O)C#Cc2ccc3c(c2)N(c2nc(N)ncc2Cl)CC3)no1 (racemic)" observed="< 1000 nM"
compound="CC(O)(C#Cc1ccc2c(c1)N(c1nc(N)ncc1Cl)CC2)c1nc(CO)cs1 (stereo not shown)" observed="1000 to 30000 nM"
compound="COCCC1(C)CN(c2nc(N)ncc2Cl)c2cc(C#CC3(O)CCCC3)ccc21 (stereo not shown)" observed="< 1000 nM"
compound="CC(O)(C#Cc1ccc2c(c1)N(c1ccnc(N)n1)CC2)C1CCCC1 (stereo not shown)" observed="< 1000 nM"
